- assayRemarks: HILIC, Waters ACQUITY UPLC BEH Amide, 100 × 2.1 mm, 1.7 µm; A: water + 0.125% formic acid + 10 mM ammonium formate; B: 5% water + 95% acetonitrile + 0.125% formic acid + 10 mM ammonium formate; gradient (min/%B) 0/100 2/100 7.7/70 9.5/40 10.25/30 12.75/100 17/100
- conditionSummary: stereoisomer not certain
metric: LC retention time (min)

// solved cases for LC retention time follow
# molecule, LC retention time [min]
records = [
    ("CCNC(=O)CCC(N)C(=O)O (stereo unspecified)", 7.66),
    ("CC(C(=O)O)c1ccc(CC2CCCC2=O)cc1 (stereo unspecified)", 1.09),
    ("CC(NC(CCCN=C(N)N)C(=O)O)C(=O)O (stereo unspecified)", 10.3),
    ("CC(C)CC(O)C(=O)O (stereo unspecified) [2-Hydroxy-4-methylpentanoic acid]", 1.57),
    ("CC(CN(C)C)CN1c2ccccc2CCc2ccccc21 (stereo unspecified)", 2.25),
    ("Cn1c(=O)c2c([nH]c(=O)n2C)n(C)c1=O", 1.83),
    ("NCCS(=O)(=O)O", 7.85),
    ("CCCCCCCCC=CCCCCCCCCCCCC(N)=O [Erucamide]", 1.06),
]

P = CC(O)C(N)=O (stereo unspecified) [Lactamide]
Q = CCC(C)C(=O)OC1CCC=C2C=CC(C)C(CCC3CC(O)CC(=O)O3)C21 (stereo unspecified)
Between the entries labeled P and Q , whose measured LC retention time is lower? Write down the label of the entry you select.
Q
(Q: 0.99 min, P: 1.74 min)

====

- assayRemarks: HILIC, Waters ACQUITY UPLC BEH Amide, 100 × 2.1 mm, 1.7 µm; A: water + 0.125% formic acid + 10 mM ammonium formate; B: 5% water + 95% acetonitrile + 0.125% formic acid + 10 mM ammonium formate; gradient (min/%B) 0/100 2/100 7.7/70 9.5/40 10.25/30 12.75/100 17/100
- conditionSummary: stereoisomer not certain
metric: LC retention time (min)

// solved cases for LC retention time follow
# compound, metric, measureUnit, recordedValue
measured = [
    ("O=c1ncc(F)c[nH]1", "LC retention time", "min", 1.77),
    ("CCCN1CCCCC1C(=O)Nc1c(C)cccc1C (centres undefined)", "LC retention time", "min", 2.49),
    ("c1ccc2c3c([nH]c2c1)CNCC3", "LC retention time", "min", 4.9),
    ("COc1cc(N)c(Cl)cc1C(=O)NC1CCN(CCCOc2ccc(F)cc2)CC1OC (centres undefined) [Cisapride]", "LC retention time", "min", 2.28),
    ("COc1cc2c(cc1OC)C13CCN4CC5=CCOC6CC(=O)N2C1C6C5CC43 (centres undefined)", "LC retention time", "min", 4.57),
]

A = NC(CCSCC(N)C(=O)O)C(=O)O (centres undefined)
B = Clc1ccccc1CN1CCc2sccc2C1
Sorting by LC retention time in descending order, would A or B appear first? Write down the label of the entry you select.
A

1 = CSCCC(=O)C(=O)O
2 = COC1C=COC2(C)Oc3c(C)c(O)c4c(O)c(c(C=NN5CCN(C6CCCC6)CC5)c(O)c4c3C2=O)NC(=O)C(C)=CC=CC(C)C(O)C(C)C(O)C(C)C(OC(C)=O)C1C (centres undefined)
Sorting by LC retention time in descending order, would 1 or 2 appear first? Write down the label of the entry you select.
2

====

- assayRemarks: HILIC, Waters ACQUITY UPLC BEH Amide, 100 × 2.1 mm, 1.7 µm; A: water + 0.125% formic acid + 10 mM ammonium formate; B: 5% water + 95% acetonitrile + 0.125% formic acid + 10 mM ammonium formate; gradient (min/%B) 0/100 2/100 7.7/70 9.5/40 10.25/30 12.75/100 17/100
- conditionSummary: stereoisomer not certain
metric: LC retention time (min)

# compound, LC retention time (min)
data = [
    ("CC(=O)Nc1ccc2c(c1)Cc1ccccc1-2 [N-2-Fluorenylacetamide]", 4.74),
    ("CCOc1cc(CC(=O)NC(CC(C)C)c2ccccc2N2CCCCC2)ccc1C(=O)O (stereo not given) [Repaglinide]", 1.01),
]

a = O=c1[nH]c(=O)n(C2CCCO2)cc1F (stereo not given) [Tegafur]
b = CCCCCC(=O)O [Hexanoic acid]
c = CC(C)CCCC(C)C1CCC2C3CC=C4CC(OC(=O)NCCN(C)C)CCC4(C)C3CCC12C (stereo not drawn) [3-beta-Cholest-5-en-3-yl [2-(dimethylamino)ethyl]carbamate]
Which order do these items take when sorted by rising LC retention time? List them. Reply: labels, ordered per the request.
a, c, b
(a: 1.22 min, c: 2.34 min, b: 4.89 min)

====

- assayRemarks: HILIC, Waters ACQUITY UPLC BEH Amide, 100 × 2.1 mm, 1.7 µm; A: water + 0.125% formic acid + 10 mM ammonium formate; B: 5% water + 95% acetonitrile + 0.125% formic acid + 10 mM ammonium formate; gradient (min/%B) 0/100 2/100 7.7/70 9.5/40 10.25/30 12.75/100 17/100
- conditionSummary: stereoisomer not certain
metric: LC retention time (min)

# molecule, recordedValue
data = [
    ("O=C1CCC(C(=O)O)N1 (stereo not drawn)", 8.71),
    ("CC(=O)NC(CC(=O)O)C(=O)NC(CCC(=O)O)C(=O)O (stereo not drawn)", 8.11),
    ("CCC(C)n1ncn(-c2ccc(N3CCN(c4ccc(OCC5COC(Cn6cncn6)(c6ccc(Cl)cc6Cl)O5)cc4)CC3)cc2)c1=O (stereo not drawn)", 0.97),
    ("COc1cc2c(cc1OC)C1C(C)c3ccc(OC)c(OC)c3CN1CC2 (stereo not drawn)", 1.52),
]

A = NC(CC(=O)O)c1ccc(O)cc1 (stereo not drawn) [3-Amino-3-(4-hydroxyphenyl)propionic acid]
B = CC1CC2C3CC(F)C4=CC(=O)C(Cl)=CC4(C)C3(F)C(O)CC2(C)C1(O)C(=O)CO (stereo not drawn)
Between the entries labeled A and B , whose measured LC retention time is lower? Write down the label of the entry you select.
B

P = NC(Cc1cnc[nH]1)C(=O)O (stereo not drawn)
Q = O=C(O)CCc1c[nH]c2ccccc12
Between the entries labeled P and Q , whose measured LC retention time is lower? Write down the label of the entry you select.
Q
(Q: 1.28 min, P: 9.48 min)

====

- assayRemarks: HILIC, Waters ACQUITY UPLC BEH Amide, 100 × 2.1 mm, 1.7 µm; A: water + 0.125% formic acid + 10 mM ammonium formate; B: 5% water + 95% acetonitrile + 0.125% formic acid + 10 mM ammonium formate; gradient (min/%B) 0/100 2/100 7.7/70 9.5/40 10.25/30 12.75/100 17/100
- conditionSummary: stereoisomer not certain
metric: LC retention time (min)

// solved cases for LC retention time follow
# compound, LC retention time, min
measured = [
    ("COC1C(O)CC(=O)OC(C)CC=CC=CC(O)C(C)CC(CC=O)C1OC1OC(C)C(OC2CC(C)(O)C(OC(=O)CC(C)C)C(C)O2)C(N(C)C)C1O (centres undefined) [Kitasamycin]", 2.04),
    ("COc1ccc2[nH]cc(CCN)c2c1 [5-Methoxytryptamine]", 4.99),
]

A = CN(CCO)CC(O)Cn1cnc2c1c(=O)n(C)c(=O)n2C (centres undefined) [Xanthinol]
B = OCCN1CCN(CCCN2c3ccccc3Sc3ccc(C(F)(F)F)cc32)CC1 [Fluphenazine]
C = CC(=O)NCCCCNCCCN [N8-Acetylspermidine]
# sort list by recorded LC retention time, greatest to least Reply: labels, ordered per the request.
C, A, B
(C: 8.87 min, A: 6.01 min, B: 2.74 min)

====

- assayRemarks: HILIC, Waters ACQUITY UPLC BEH Amide, 100 × 2.1 mm, 1.7 µm; A: water + 0.125% formic acid + 10 mM ammonium formate; B: 5% water + 95% acetonitrile + 0.125% formic acid + 10 mM ammonium formate; gradient (min/%B) 0/100 2/100 7.7/70 9.5/40 10.25/30 12.75/100 17/100
- conditionSummary: stereoisomer not certain
metric: LC retention time (min)

# molecule, LC retention time, min
data = [
    ("CCCCCCCCCCCCCCC(O)C(O)C(N)CO (stereo unspecified)", 5.18),
]

a = CN1CCCC1c1cccnc1 (stereo unspecified)
b = CCCCCCCCC=CCCCCCCCC(=O)OCC(O)CO (stereo unspecified)
c = CN(C)CCC(c1ccc(Cl)cc1)c1ccccn1 (stereo unspecified)
d = C=CC1=C(C(=O)O)N2C(=O)C(NC(=O)C(=NOCC(=O)O)c3csc(N)n3)C2SC1 (stereo unspecified)
# sort list by recorded LC retention time, greatest to least Reply: labels, ordered per the request.
d, a, c, b
(d: 7.79 min, a: 5.34 min, c: 2.54 min, b: 1.19 min)

I = COC1C(O)C(CO)OC1n1cnc2c(=O)[nH]c(N)nc21 (stereo unspecified)
II = COC(=O)C1=C(C)NC(C)=C(C(=O)OC(C)C)C1c1cccc2nonc12 (stereo unspecified)
III = CSc1ncnc2nc[nH]c12
IV = Nc1ccccc1S(=O)(=O)O
V = CN=C(N)NCCCC(N)C(=O)O (stereo unspecified)
# sort list by recorded LC retention time, greatest to least Reply: labels, ordered per the request.
V, I, IV, III, II

P = CC(CN)C(=O)O (stereo unspecified)
Q = CC12CCC(=O)C=C1CCC1C2CCC2(C)C1CCC2(O)C(=O)CO (stereo unspecified)
Sorting by LC retention time in descending order, would P or Q appear first? Write down the label of the entry you select.
P

I = NC(N)=NCCCCC(N)C(=O)O (stereo unspecified)
II = COc1ccc(C=CC(=O)Nc2ccccc2C(=O)O)cc1OC
III = Nc1ccn(C2CC(O)C(CO)O2)c(=O)n1 (stereo unspecified)
Which order do these items take when sorted by rising LC retention time? List them. Reply: labels, ordered per the request.
II, III, I
(II: 1.26 min, III: 5.87 min, I: 9.34 min)
